- Tested on: RAW264.7
- MEASUREMENT PROTOCOL: Cytotoxicity against mouse RAW264.7 cells assessed as inhibition of cell viability incubated for 72 hrs by CCK8 assay
- Assay type: functional, cell-based
- ASSAY CONDITIONS: RAW264.7, 72 h
MEASURED PROPERTY: IC50 (µM)
Write down the numeric answer in µM and omit the unit.

Q. Complete the entry with IC50 for `COC1=C[C@@H]2[C@@H]3Cc4c(CO)cc(OC)c(OC(=O)/C=C/c5ccccc5)c4[C@]2(CCN3C)CC1=O`
A. 492

Q. Complete the entry with IC50 for `C/C=C/C[C@@H](C)[C@@H](O)[C@H]1C(=O)N[C@@H](CC)C(=O)N(C)CC(=O)N(C)[C@@H](CC(C)C)C(=O)N[C@@H](C(C)C)C(=O)N(C)[C@@H](CC(C)C)C(=O)N[C@@H](C)C(=O)N[C@H](C)C(=O)N(C)[C@@H](CC(C)C)C(=O)N(C)[C@@H](CC(C)C)C(=O)N(C)[C@@H](C(C)C)C(=O)N1C`
A. 14.2

* * *

- MEASUREMENT PROTOCOL: AUC in Sprague-Dawley rat at 50 mg/kg, po measured for 0.083 to 24 hrs by HPLC analysis
- Assay type: ADME, organism-based
- ASSAY CONDITIONS: in vivo, time 0.083-24 hrs
MEASURED PROPERTY: AUC (ng·h/mL)
Write down the numeric answer in ng·h/mL and omit the unit.

Q. Complete the entry with AUC for `COC1=C[C@@H]2[C@@H]3Cc4c(CO)cc(OC)c(OC(=O)/C=C/c5ccccc5)c4[C@]2(CCN3C)CC1=O`
A. 15400

* * *

- MEASUREMENT PROTOCOL: Cmax in Sprague-Dawley rat at 50 mg/kg, po measured for 0.083 to 24 hrs by HPLC analysis
- Format: ADME, organism-based
- ASSAY CONDITIONS: in vivo, time 0.083-24 hrs
MEASURED PROPERTY: Cmax (ng/mL)
Write down the numeric answer in ng/mL and omit the unit.

Q. Complete the entry with Cmax for `COC1=C[C@@H]2[C@@H]3Cc4c(CO)cc(OC)c(OC(=O)/C=C/c5ccccc5)c4[C@]2(CCN3C)CC1=O`
A. 3590

* * *

- MEASUREMENT PROTOCOL: Oral bioavailability in Sprague-Dawley rat at 50 mg/kg measured for 0.083 to 24 hrs by HPLC analysis
- Format: ADME, organism-based
- ASSAY CONDITIONS: in vivo, time 0.083-24 hrs
Please provide measured bioavailability for the entries that follow.
Write down the numeric answer in % and omit the unit.

Q. Complete the entry with bioavailability for `COC1=C[C@@H]2[C@@H]3Cc4c(CO)cc(OC)c(OC(=O)/C=C/c5ccccc5)c4[C@]2(CCN3C)CC1=O`
A. 59.2

Q. Complete the entry with bioavailability for `COC1=C[C@@H]2[C@@H]3Cc4c(COC(=O)/C=C/c5ccccc5)cc(OC)c(OC(=O)/C=C/c5ccccc5)c4[C@]2(CCN3C)CC1=O`
A. 18
